Assignment: determine reported lowest phenotypically active concentration for the given molecules.
Tested on: HepG2-GM130-SQSTM1
assay_protocol: lowest phenotypically active concentration; higher = less potent
test_context: treatment time: 24 h
Give bare numbers, in µM.

molecule	target	measured
COc1ccc(S(=O)(=O)N(C(C)=O)c2ccccc2/C=C/c2cc[n+]([O-])cc2)cc1	HepG2-GM130-SQSTM1	3
CC(C)CNc1nc(-c2cccc3ncccc23)cn2c(-c3ccc(C(=O)NC4CC4)cc3)cnc12	HepG2-GM130-SQSTM1	1
O=C(O)[C@H]1CCCC[C@H]1C(=O)N1CCc2ccccc2[C@H]1CN1C(=O)c2ccccc2C1=O	HepG2-GM130-SQSTM1	9
CCOC(=O)CCNc1cc(N2CCc3ccccc3CC2)nc(-c2ccccn2)n1	HepG2-GM130-SQSTM1	3
CC(C)n1c(/C=C/[C@@H](O)C[C@@H](O)CC(=O)O)c(-c2ccc(F)cc2)c2ccccc21.CC(C)n1c(/C=C/[C@H](O)C[C@H](O)CC(=O)O)c(-c2ccc(F)cc2)c2ccccc21 [Fluvastatin sodium]	HepG2-GM130-SQSTM1	1

Value sought for every listed molecule: lowest phenotypically active concentration.
1. COc1cc(/C=C/C(=O)N2CCC=CC2=O)cc(OC)c1OC
2. Clc1ccc(N/N=C(\c2ccccc2)c2ccccn2)nc1
3. CN(C)CCCNc1c2c(=O)n(C)c(=O)nc-2n(C)c2ccccc12
4. C[C@@H](CN1CCC(n2c(=O)[nH]c3cc(Cl)ccc32)CC1)NC(=O)c1ccc2ccccc2c1

Result ::
1. 3
2. 1
3. 9
4. 9

Value sought for every listed molecule: lowest phenotypically active concentration.
1. CC[C@@H](N)CNc1ccnc(-c2cc(-c3cnn(C)c3)ccc2O)n1
2. CS(=O)(=O)c1cccc(CNc2nc(Nc3ccc4c(c3)CCC(=O)N4)ncc2C(F)(F)F)c1
3. CCN(CCO)CCCC(C)Nc1ccnc2cc(Cl)ccc12 (centres undefined) [hydroxychloroquine]

Result ::
1
3
9

Value sought for every listed molecule: lowest phenotypically active concentration.
1. CCCCc1oc2ccc(NS(C)(=O)=O)cc2c1C(=O)c1ccc(OCCCN(CCCC)CCCC)cc1
2. O=C(O)C[C@H](O)C[C@H](O)/C=C/c1c(C2CC2)nc2ccccc2c1-c1ccc(F)cc1
3. C=CC(=O)Nc1cccc(Nc2nc(Nc3ccc(OCCOC)cc3)ncc2F)c1

Result ::
1: 9; 2: 1; 3: 3
